Target: ROS (Homo sapiens, UniProt P08922)
Sequence (P08922 28-2347): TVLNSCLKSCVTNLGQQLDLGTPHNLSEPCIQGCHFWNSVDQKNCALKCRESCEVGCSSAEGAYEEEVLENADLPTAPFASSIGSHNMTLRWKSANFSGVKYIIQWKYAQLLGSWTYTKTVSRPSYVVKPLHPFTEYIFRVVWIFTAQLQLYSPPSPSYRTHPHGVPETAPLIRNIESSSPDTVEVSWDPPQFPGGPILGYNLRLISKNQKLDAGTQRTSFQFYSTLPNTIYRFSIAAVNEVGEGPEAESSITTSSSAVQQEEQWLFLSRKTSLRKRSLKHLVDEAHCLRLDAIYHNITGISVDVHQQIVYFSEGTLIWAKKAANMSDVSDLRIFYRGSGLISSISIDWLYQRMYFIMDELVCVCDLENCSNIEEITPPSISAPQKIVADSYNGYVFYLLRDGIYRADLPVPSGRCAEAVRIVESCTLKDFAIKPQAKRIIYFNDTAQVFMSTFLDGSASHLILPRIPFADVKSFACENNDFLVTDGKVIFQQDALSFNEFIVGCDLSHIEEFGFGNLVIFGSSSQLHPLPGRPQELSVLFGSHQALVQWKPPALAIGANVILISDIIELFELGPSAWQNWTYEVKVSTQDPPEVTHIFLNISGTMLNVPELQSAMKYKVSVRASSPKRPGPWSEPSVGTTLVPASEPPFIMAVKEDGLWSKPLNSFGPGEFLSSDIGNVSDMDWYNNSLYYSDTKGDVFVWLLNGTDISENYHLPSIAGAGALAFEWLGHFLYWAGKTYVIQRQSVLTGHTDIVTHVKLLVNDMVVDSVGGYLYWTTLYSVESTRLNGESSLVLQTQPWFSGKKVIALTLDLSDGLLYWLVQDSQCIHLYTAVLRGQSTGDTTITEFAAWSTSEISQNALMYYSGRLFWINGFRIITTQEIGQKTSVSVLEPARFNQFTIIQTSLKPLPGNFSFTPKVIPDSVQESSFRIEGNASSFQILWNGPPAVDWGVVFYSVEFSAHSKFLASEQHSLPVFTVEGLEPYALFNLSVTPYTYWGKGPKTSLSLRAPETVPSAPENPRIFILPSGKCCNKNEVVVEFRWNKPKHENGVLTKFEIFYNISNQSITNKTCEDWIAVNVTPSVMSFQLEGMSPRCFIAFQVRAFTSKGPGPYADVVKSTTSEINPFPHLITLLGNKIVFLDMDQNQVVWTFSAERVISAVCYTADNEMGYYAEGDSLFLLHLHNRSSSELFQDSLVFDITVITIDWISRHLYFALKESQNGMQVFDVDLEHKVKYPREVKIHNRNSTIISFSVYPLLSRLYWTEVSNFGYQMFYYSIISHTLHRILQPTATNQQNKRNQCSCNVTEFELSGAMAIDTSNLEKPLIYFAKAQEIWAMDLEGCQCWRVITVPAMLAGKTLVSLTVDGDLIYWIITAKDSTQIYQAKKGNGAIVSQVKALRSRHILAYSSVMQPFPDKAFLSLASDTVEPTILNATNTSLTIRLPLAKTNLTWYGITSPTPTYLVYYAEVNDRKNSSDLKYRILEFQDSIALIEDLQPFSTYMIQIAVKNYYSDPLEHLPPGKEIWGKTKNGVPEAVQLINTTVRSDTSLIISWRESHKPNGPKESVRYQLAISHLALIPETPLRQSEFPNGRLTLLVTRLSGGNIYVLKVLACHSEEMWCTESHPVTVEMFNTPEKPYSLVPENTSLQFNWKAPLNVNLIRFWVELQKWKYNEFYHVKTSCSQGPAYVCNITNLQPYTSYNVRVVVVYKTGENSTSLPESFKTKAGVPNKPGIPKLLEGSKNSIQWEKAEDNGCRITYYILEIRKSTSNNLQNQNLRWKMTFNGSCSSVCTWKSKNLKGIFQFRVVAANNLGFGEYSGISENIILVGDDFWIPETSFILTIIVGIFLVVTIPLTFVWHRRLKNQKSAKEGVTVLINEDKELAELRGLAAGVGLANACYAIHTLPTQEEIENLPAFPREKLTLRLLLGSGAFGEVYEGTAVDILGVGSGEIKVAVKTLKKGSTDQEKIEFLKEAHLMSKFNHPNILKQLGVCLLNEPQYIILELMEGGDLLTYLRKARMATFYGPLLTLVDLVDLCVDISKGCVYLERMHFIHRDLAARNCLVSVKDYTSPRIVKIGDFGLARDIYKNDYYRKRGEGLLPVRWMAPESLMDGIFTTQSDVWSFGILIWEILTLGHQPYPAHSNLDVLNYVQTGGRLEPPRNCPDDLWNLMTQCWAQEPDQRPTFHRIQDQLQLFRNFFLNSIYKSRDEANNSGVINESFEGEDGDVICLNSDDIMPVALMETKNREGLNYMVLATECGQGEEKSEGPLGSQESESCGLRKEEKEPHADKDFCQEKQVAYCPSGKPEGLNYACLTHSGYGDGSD
Test: In vitro ROS enzymatic reaction assay (HTRF, Cisbio)
Type: biochemical
Design: ROS or EGFR enzyme, 0.008 ng/ul
Conditions: ROS kinase, compound at 10 uM; read-out: Kinase Inhib. 10 uM (%)
Procedure: The ROS enzymatic reactions were carried out with a high throughput screening platform for phosphor-detection of kinase activity. This platform based on homogeneous time resolved fluorescence (HTRF) technology from Cisbio Bioassays, Inc. (Cisbio). […] The reaction was allowed to proceed for 30 minutes at room temperature. An equal volume of detection buffer was then added to the reaction mix.
Parameter: inhibition at 10 µM. Scope: all listed entries.
Please respond with the number in % and leave the unit unwritten.

Record summary for O=C(CC1=Nc2cccc3cccc(c23)NC1=O)NCc1cccc(I)c1 [drawing 346] : reported inhibition at 10 µM = 22.5

For reference, reported inhibition at 10 µM for CCc1cc(Br)ccc1NC(=O)CCn1ccc2ccccc21 [drawing 341] stands at 20.8

Reported inhibition at 10 µM of Nc1cccc2cccc(N=C(CC(=O)O)C(=O)O)c12 [drawing 344] : 24.6

Entry O=C(NNc1cc(C(F)(F)F)ccc1Cl)c1cccnc1Oc1ccccc1 [drawing 253] ; inhibition at 10 µM = 31.2

Value of measured inhibition at 10 µM for the entry O=C(COc1ccccc1)NCC(c1cccs1)S(=O)(=O)c1ccc(Cl)cc1 (centres unmarked) [drawing 290] : 102

Per the record, COc1ccc(NC(=O)CC2=Nc3cccc4cccc(c34)NC2=O)cc1 [drawing 345] has inhibition at 10 µM of 26.5

###

tested on: HeLa cervical cancer cell line; assay: In-vitro cell survival assay (Alamar blue), HeLa; format: cell-based; details: Homo sapiens, 24 h, one day after compound addition
Each entry below carries its recorded pEC50.
Please express pEC50 as -log10 of the molar concentration.

- COMPOUND: "NCC1CCN(C(=O)c2cccc(Nc3ncc(Cl)c(Nc4ccc5ncsc5c4)n3)c2)CC1 [drawing 470]"
  PROPERTY LABEL: "pEC50"
  ASSAY VALUE: 5.52

Lab note: measured pEC50 of Nc1cccc2cccc(N=C(CC(=O)O)C(=O)O)c12 [drawing 481] was 4.20

Field pEC50 (entry O=C(NCCN1CCOCC1)c1cccc(Nc2nccc(Nc3ccc4ncsc4c3)n2)c1 [drawing 411] ) reads 4.72

Noted for COc1ccc(NC(=O)CCn2ccc3ccccc32)cc1 [drawing 474] : its pEC50 reads 4.52

Sure, the documented pEC50 for Cc1cccc(Nc2nccc(Nc3cccc(C(=O)NCCCN4CCOCC4)c3)n2)c1 [drawing 416] is 4.47

###

Below, each of the molecules is paired with its reported inhibition at 5 µM value.
target: ROS (Homo sapiens, UniProt P08922); experiment: In vitro ROS enzymatic reaction assay (HTRF, Cisbio); type: biochemical; parameters: ROS or EGFR enzyme, 0.008 ng/ul; conditions: ROS kinase, compound at 5 uM; read-out: Kinase Inhib. 5 uM (%)
Please reply with the bare figure in % and do not write the unit itself.

Below, 4 molecules whose answers are already recorded.
- MOLECULE: "O=C1NN=C(c2ccccc2)/C1=C/Nc1ccccc1 [drawing 231]"
  inhibition at 5 µM (%): 30.6
- MOLECULE: "NC1CCN(C(=O)c2ccc(Nc3ncc(Cl)c(Nc4ccc5ncsc5c4)n3)cc2)CC1 [drawing 327]"
  inhibition at 5 µM (%): 100
- MOLECULE: "Cc1cccc(Nc2ccnc(Nc3cccc(C(=O)N4CC=CCC4)c3)n2)c1 [drawing 234]"
  inhibition at 5 µM (%): 94.2
- MOLECULE: "O=C(NCC1CCCCC1)c1cccc(Nc2nccc(Nc3ccc4ncsc4c3)n2)c1 [drawing 270]"
  inhibition at 5 µM (%): 32.6

So for NC(=O)c1c(NC(=O)Nc2ccccc2)sc2c1CCCC2 [drawing 264] , the logged inhibition at 5 µM turned out to be 37.1

Value of measured inhibition at 5 µM for the entry CN1CCN(C(=O)c2cccc(Nc3nccc(Nc4ccc5ncsc5c4)n3)c2)CC1 [drawing 278] : 99.4

Entry CC(C)(C)OC(=O)NC1CCN(C(=O)c2ccc(Nc3ncc(Cl)c(Nc4ccc5ncsc5c4)n3)cc2)CC1 [drawing 309] , inhibition at 5 µM reported as 29.4

###

molecular target: ROS (Homo sapiens, UniProt P08922); experiment: In vitro ROS enzymatic reaction assay (HTRF, Cisbio); format: biochemical; set-up: ROS or EGFR enzyme, 0.008 ng/ul
PROPERTY LABEL: IC50 (nM)
Quick note: give the figure in nM, leave out the unit.

The recorded IC50 for entry O=C(COc1ccccc1)NCC(c1cccs1)S(=O)(=O)c1ccc(Cl)cc1 (stereo not drawn) [drawing 290] equals 1780

Per the record, COc1ccc(C2=CCNCC2)cc1Nc1nccc(Nc2ccc3ncsc3c2)n1 [drawing 330] has IC50 of 3

For reference, reported IC50 for `CC(C)c1nc(Nc2cccc(OC(F)(F)F)c2)nc(Nc2cc(C3CC3)n[nH]2)n1` stands at 40

IC50 reported for this compound `CC(C)c1nc(Nc2ccc(Br)cc2)nc(Nc2cc(C3CC3)n[nH]2)n1` : 67

###

tested on: U87 glioblastoma cell line; experiment: In-vitro cell survival assay (Alamar blue), U87; format: cell-based; settings: 24 h; U87, one day after compound addition
PROPERTY LABEL: EC50 (µM)
A number alone suffices; assume µM.

Use the examples below as a reference point.
- COMPOUND: "CC(C)(C)c1cc(C(=O)NNc2cccc(Cl)c2)n(Cc2ccccc2)n1 [drawing 389]"
  EC50 (µM): 50
- COMPOUND: "c1cc(Nc2cc(C3CC3)[nH]n2)nc(Nc2ccc(NCc3cc(C4OCCO4)c(C4OCCO4)s3)cc2)n1 [drawing 437]"
  EC50 (µM): 13
- COMPOUND: "CCN(CCO)c1nc(Nc2ccc(F)cc2)c2cnn(-c3ccccc3)c2n1 [drawing 386]"
  EC50 (µM): 10
- COMPOUND: "O=C(NCc1ccc(F)cc1)c1cccc(Nc2nccc(Nc3ccc4ncsc4c3)n2)c1 [drawing 423]"
  EC50 (µM): 11
- COMPOUND: "Clc1ccc(CNc2cc(-c3ccccc3)ncn2)cc1 [drawing 383]"
  EC50 (µM): 38

Value (EC50, U87 glioblastoma cell line) for record NC1CCN(C(=O)c2ccc(Nc3ncc(Cl)c(Nc4ccc5ncsc5c4)n3)cc2)CC1 [drawing 464] = 40

###

biological target: ROS (Homo sapiens); test: In vitro ROS enzymatic reaction assay (HTRF, Cisbio); assay type: biochemical; parameters: ROS or EGFR enzyme, 0.008 ng/ul; conditions: ROS kinase, compound at 5 uM; read-out: Kinase Inhib. 5 uM (%)
PROPERTY LABEL: inhibition at 5 µM (%)
# value in %; strip the unit string

Some entries whose results are on file:
- COMPOUND: "CC(C)c1nc(Nc2ccc(N)cc2)nc(Nc2cc(C3CC3)[nH]n2)n1 [drawing 324]"
  UNIT LABEL: "%"
  ASSAY VALUE: 20.4
- COMPOUND: "O=C(NCc1ccc(F)cc1)c1cccc(Nc2nccc(Nc3ccc4ncsc4c3)n2)c1 [drawing 286]"
  UNIT LABEL: "%"
  ASSAY VALUE: 101
- COMPOUND: "CN1CCN(C(=O)c2cccc(Nc3ncc(Cl)c(Nc4ccc5ncsc5c4)n3)c2)CC1 [drawing 329]"
  UNIT LABEL: "%"
  ASSAY VALUE: 100
- COMPOUND: "Clc1nccc(Nc2cc(C3CC3)[nH]n2)n1 [drawing 298]"
  UNIT LABEL: "%"
  ASSAY VALUE: 38.4
- COMPOUND: "O=C(COc1ccccc1)NCC(c1cccs1)S(=O)(=O)c1ccc(Cl)cc1 (stereo not drawn) [drawing 290]"
  UNIT LABEL: "%"
  ASSAY VALUE: 83.8

Lab book: inhibition at 5 µM of NCC1CCN(C(=O)c2cccc(Nc3ncc(Cl)c(Nc4ccc5ncsc5c4)n3)c2)CC1 [drawing 333] noted as 100

The reported inhibition at 5 µM of the compound COc1ccc(N/C=C2\C(=O)NN=C2c2ccccc2)cc1 [drawing 232] was 34.2

Field inhibition at 5 µM (entry CC(C)c1nc(Nc2ccc(C(=O)N3CCN(C)CC3)cc2)nc(Nc2ccc3ncsc3c2)n1 [drawing 321] ) reads 90.7

Reported inhibition at 5 µM for CC(C)(CO)NC(=O)c1cccc(Nc2nccc(Nc3ccc4ncsc4c3)n2)c1 [drawing 271] was 96.3

###

Entries and their measured pEC50 follow.
system: U118 glioblastoma cell line; experiment: In-vitro cell survival assay (Alamar blue), U118; format: cell-based; settings: 24 h; U118, one day after compound addition
Keep in mind that pEC50 stands for -log10 of concentration in molar terms.

# example entries with known answers
- COMPOUND: "CCN(CC)CCNC(=O)c1cccc(Nc2nccc(Nc3ccc4ncsc4c3)n2)c1 [drawing 373]"
  pEC50: 4.46
- COMPOUND: "NC(=O)c1c(NC(=O)Nc2ccccc2)sc2c1CCCC2 [drawing 401]"
  pEC50: 4.47

CCN(CCO)c1nc(Nc2ccc(F)cc2)c2cnn(-c3ccccc3)c2n1 [drawing 386] on U118 glioblastoma cell line gives pEC50 = 4.24

I looked up Cc1cccc(Nc2nccc(Nc3cccc(C(=O)NCCN4CCOCC4)c3)n2)c1 [drawing 381] and its pEC50 for U118 glioblastoma cell line was 4.77

Value sought: pEC50, system U118 glioblastoma cell line, item COc1ccc(Nc2nc(N(C)CCO)nc3c2cnn3-c2ccccc2)cc1 [drawing 387] . Result: 5.10

The reported pEC50 value, U118 glioblastoma cell line, for C[C@H](O)CN(C[C@H](C)O)C(=O)c1cccc(Nc2nccc(Nc3ccc4ncsc4c3)n2)c1 [drawing 420] reads 4.51
